tested on: Phosphorylation of ERK½ in A549 cells; test: Phospho-ERK½ MSD Assay in A549 cells; format: cell-based; conditions: A549 cells; 4 hours compound treatment; 10 ng/mL EGF for 10 min; read-out: p-ERK IC50 (A549)
Task for the reader: assign each of the following compounds its reported pIC50.
Numbers only, as −log10 of the molar value.

compound | obs_value
C=CC(=O)N1CCN(c2nc(=O)n(-c3ccccc3C(C)C)c3cc(-c4c(C)ccc5[nH]ncc45)c(Cl)cc23)[C@@H](C)C1 (single isomer, unassigned) [Example 11-2-2] | 4.58
C=CC(=O)N1CCN(c2nc(=O)n(-c3ccncc3C3CC3)c3cc(-c4c(O)cccc4F)c(Cl)cc23)[C@@H](C)C1 (single isomer, unassigned) [Example 9-7-2] | 4.21
C=CC(=O)N1CCN(c2snc3nc(-c4cc(O)cc5ccccc45)c(Cl)cc23)C(C)C1 (single isomer, unassigned) [Example 2-5-2] | 5.43

Value sought for every listed compound: pIC50.
1. C=CC(=O)N1CCN(c2nc(=O)n(-c3ccccc3C(C)C)c3cc(-c4c(C)ccc5[nH]ncc45)c(Cl)cc23)CC1 (single isomer, unassigned)
2. C=CC(=O)N1CCN(c2nc(=O)n(-c3ccccc3C(C)C)c3cc(-c4c(O)cccc4F)c(Cl)cc23)CC1 (single isomer, unassigned) [Example 8-1-1]
3. C=CC(=O)N1CCN(c2nc(=O)n(-c3ccccc3C(C)C)c3nc(-c4c(O)cccc4F)c(Cl)cc23)[C@@H](C)C1 [Example 8-6]
4. C=CC(=O)N1CCN(c2nc(=O)n(-c3ccccc3C(C)C)c3cc(-c4c(C)ccc5[nH]ncc45)c(Cl)cc23)[C@@H](C)C1 (single isomer, unassigned) [Example 11-2-1]

[4.66, 4.16, 4.16, 5.00]

###

tested on: Phosphorylation of ERK½ in A549 cells; assay: Phospho-ERK½ MSD Assay in A549 cells; assay type: cell-based; settings: Homo sapiens, A549, A549 cells; 4 hours compound treatment; 10 ng/mL EGF for 10 min; read-out: p-ERK IC50 (A549)
Would you kindly list IC50 for each of these molecules?

// known answers, use as guide
molecule | IC50
C=CC(=O)N1CCN(c2snc3c(F)c(-c4cc(O)cc5ccccc45)c(Cl)cc23)[C@@H](C)C1 [Example 1-19] | > 100 µM
C=CC(=O)N1CCN(c2snc3c(F)c(-c4cc(O)cc5ccccc45)c(Cl)cc23)[C@@H](C(F)F)C1 (racemic) | > 100 µM
C=CC(=O)N1CCN(c2nnc(-c3c(C)cccc3C)c3cc(-c4c(O)cccc4F)c(Cl)cc23)CC1 | > 100 µM

Fill in IC50 for each of the 7 molecules listed.
1. C=CC(=O)N1CCN(c2nc(=O)n(-c3ccccc3C(C)C)c3cc(-c4cc(O)cc5ccccc45)c(Cl)cc23)CC1
2. C=CC(=O)N1CC[C@@H]2[C@H]1CN2c1snc2c(F)c(-c3cc(O)cc4ccccc34)c(Cl)cc12
3. C=CC(=O)N1CCN(c2snc3c(F)c(-c4cc(O)c(F)cc4Cl)c(Cl)cc23)CC1
4. C=CC(=O)N1CCN(c2nnc(Nc3ccccc3)c3cc(-c4c(O)cccc4F)c(Cl)cc23)CC1
5. C=CC(=O)N1CCN(c2snc3c(F)c(-c4cc(O)ccc4C)c(Cl)cc23)CC1
6. C=CC(=O)N1CCN(c2snc3c(F)c(-c4nc(N)ccc4Cl)c(Cl)cc23)CC1
7. C=CC(=O)N1CCN(c2nnc(-c3c(C)ccc4[nH]ncc34)c3cc(-c4c(O)cccc4F)c(Cl)cc23)CC1

["12.8 µM", "> 100 µM", "> 100 µM", "> 100 µM", "> 100 µM", "3.7 µM", "> 100 µM"]

###

target: GDP-bound protein (aa 1-169), containing both G12C and C118A amino acid substitutions (Homo sapiens, UniProt P01116, C118A/G12C); test: Coupled Nucleotide Exchange Assay (SOS-mediated nucleotide exchange, AlphaScreen); assay type: biochemical; details: 2 hours compound pre-incubation
Sequence (P01116 1-169 isoform P01116-2 G12C/C118A): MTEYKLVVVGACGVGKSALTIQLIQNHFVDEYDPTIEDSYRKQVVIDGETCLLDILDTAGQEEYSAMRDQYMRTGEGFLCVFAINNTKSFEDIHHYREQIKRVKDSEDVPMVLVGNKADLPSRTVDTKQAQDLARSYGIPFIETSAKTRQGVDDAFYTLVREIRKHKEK
property: Coupled exchange IC50 (nM)
Numbers only, in nM.

molecule | Coupled exchange IC50, nM
C=CC(=O)N1CCN(c2nnc(-c3ccccc3C(C)C)c3cc(-c4c(O)cccc4F)c(Cl)cc23)CC1 [Example 10-4] | 235
C=CC(=O)N1CCN(c2nc(=O)n(-c3ccccc3C(C)CC)c3cc(-c4cc(O)cc5ccccc45)c(Cl)cc23)CC1 (racemic) [Example 9-4] | 198

For the 4 molecules below, give their Coupled exchange IC50 values.
1. C=CC(=O)N1CCN(c2nnc(-c3cccc4[nH]ccc34)c3cc(-c4c(O)cccc4F)c(Cl)cc23)CC1 [Example 10-9]
2. C=CC(=O)N1CCN(c2snc3c(F)c(-c4cc(O)cc5ccccc45)c(Cl)cc23)C(CO)C1 (stereo in doubt) [Example 1-7]
3. C=CC(=O)N1CCN(c2snc3c(F)c(-c4cc(O)cc5ccccc45)c(Cl)cc23)[C@@H](C)C1 (single isomer, unassigned) [Example 1-19-2]
4. C=CC(=O)N1CCN(c2snc3c(F)c(-c4cc(O)ccc4Br)c(Cl)cc23)CC1 [Example 1-1]

1: 1680; 2: 209; 3: 5100; 4: 355

Requested read-out: Coupled exchange IC50. Entry: C=CC(=O)N1CCN(c2snc3c(F)c(-c4cc(N)nc5ccccc45)c(Cl)cc23)CC1 [Example 26]
3900

###

Exercise: state measured pIC50 for each of the compounds provided.
test system: Phosphorylation of ERK½ in A549 cells; assay: Phospho-ERK½ MSD Assay in A549 cells; format: cell-based; conditions: Homo sapiens, A549, A549 cells; 4 hours compound treatment; 10 ng/mL EGF for 10 min; read-out: p-ERK IC50 (A549)
pIC50: −log10 of the molar value.

compound | property | obs_value
C=CC(=O)N1CCN(c2snc3c(F)c(-c4cc(O)cc(Cl)c4Cl)c(Cl)cc23)CC1 | pIC50 | < 4.48
C=CC(=O)N1CCN(c2snc3c(F)c(-c4c[nH]c5ccccc45)c(Cl)cc23)CC1 | pIC50 | < 4.00
C=CC(=O)N1CCN(c2nc(=O)n(CC3CC3)c3nc(-c4c(O)cccc4F)c(Cl)cc23)CC1 | pIC50 | < 4.48

Record pIC50 for all entries; do not skip any.
1. C=CC(=O)N1CCN(c2snc3c(F)c(-c4c(O)cccc4F)c(Cl)cc23)CC1
2. C=CC(=O)N1CCN(c2snc3c(F)c(-c4cc(O)cc5ccccc45)c(Cl)cc23)[C@@H](C)C1 (single isomer, unassigned) [Example 1-19-1]
3. C=CC(=O)N1CC2(C1)CN(c1snc3c(F)c(-c4cc(O)cc5ccccc45)c(Cl)cc13)C2
4. C=CC(=O)N(C)C1CN(c2snc3c(F)c(-c4cc(O)cc5ccccc45)c(Cl)cc23)C1

1: < 4.00; 2: < 4.00; 3: < 4.00; 4: < 4.00

###

target: GDP-bound protein (aa 1-169), containing both G12C and C118A amino acid substitutions (Homo sapiens, UniProt P01116, C118A/G12C); test: Coupled Nucleotide Exchange Assay (SOS-mediated nucleotide exchange, AlphaScreen); format: biochemical; conditions: 2 hours compound pre-incubation
property: Coupled exchange IC50 (nM)
Answers are plain numbers, in nM.

These recorded examples may help you get a feel for the data.
compound | Coupled exchange IC50 [nM]
C=CC(=O)N1CCN(c2snc3c(F)c(-c4cc(O)c(F)cc4F)c(Cl)cc23)CC1 [Example 3-10] | 4740
C=CC(=O)N1CCN(c2snc3c(F)c(-c4cc(O)cc(Cl)c4Cl)c(Cl)cc23)CC1 [Example 3-22] | 249
C=CC(=O)N1CCN(c2nnc(N3CCCCC3)c3cc(-c4c(O)cccc4F)c(Cl)cc23)CC1 [Example 15] | 2560

Answer for every listed entry: what is its Coupled exchange IC50? The entries follow.
1. C=CC(=O)N1CCN(c2nc(=O)n(-c3ccccc3C(C)C)c3cc(-c4ccccc4Cl)c(Cl)cc23)[C@@H](C)C1 [Example 9-11]
2. C=CC(=O)N1CCN(c2nc(=O)n(-c3ccccc3C(C)C)c3nc(-c4c(O)cccc4F)c(Cl)cc23)[C@@H](C)C1 [Example 8-6]
3. C=CC(=O)N1CCN(c2snc3c(F)c(-c4cc(O)c(F)cc4Cl)c(Cl)cc23)CC1 [Example 3-18]

1: 93; 2: 100; 3: 2600

###

Tested on: Phosphorylation of ERK½ in A549 cells
Assay: Phospho-ERK½ MSD Assay in A549 cells
Assay type: cell-based
Details: Homo sapiens, A549, A549 cells; 4 hours compound treatment; 10 ng/mL EGF for 10 min; read-out: p-ERK IC50 (A549)
Method: Phospho-ERK½ MSD Assay: MIA PaCa-2 (ATCC® CRL-1420™) and A549 (ATCC® CCL-185™) cells were cultured in RPMI 1640 Medium (ThermoFisher Scientific 11875093) containing 10% fetal bovine serum (ThermoFisher Scientific 16000044) and 1× penicillin-streptomycin-glutamine (ThermoFisher Scientific 10378016). […] Assay plates were read on a Meso Scale Discovery Sector Imager 6000, and data were analyzed using a 4-parameter logistic model to calculate IC50 values.
property: IC50

Example results:
molecule | IC50
C=CC(=O)N1CCN(c2snc3c(F)c(-c4c(O)ccc5ccccc45)c(Cl)cc23)CC1 | > 100 µM
C=CC(=O)N1CCN(c2snc3c(F)c(-c4cc(OC)ccc4Cl)c(Cl)cc23)CC1 | > 33.3 µM
C=CC(=O)N1CCN(c2snc3c(F)c(-c4cc(O)cc5ccccc45)c(Cl)cc23)[C@H](CC)C1 (racemic) | > 100 µM
C=CC(=O)N1CCN(c2nc(=O)n(-c3ccccc3C(C)C)c3cc(-c4cc(O)cc(Cl)c4Cl)c(Cl)cc23)[C@@H](C)C1 | 57.4 µM
C=CC(=O)N1CCN(c2nc(=O)n(-c3cnccc3C3CC3)c3cc(-c4c(O)cccc4F)c(Cl)cc23)CC1 | > 100 µM

Turning now to a further record.
Suppose we examine the molecule C=CC(=O)N1CCN(c2snc3c(F)c(-c4cc(O)cc5ccccc45)c(Cl)cc23)C(CO)C1 (racemic) [Example 1-18] ; what IC50 value has been reported?
> 33.3 µM

Attribution: patent US11285135B2
